B1: Transitional endoplasmic reticulum ATPase, residues 26 to 106; numbered along this chain, P55072 (parent)
chain: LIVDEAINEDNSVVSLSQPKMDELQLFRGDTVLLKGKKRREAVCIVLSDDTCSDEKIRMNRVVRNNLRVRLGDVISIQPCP

- Variants of: B1
- procedure-details: abundance fitness (aPCA) (normalised: wild type 0, dead -1); higher = more abundant; growth selection in yeast, the domain comes from the species named
- condition-summary: Homo sapiens
Each entry below carries its recorded abundance fitness.
attribute-measured: abundance fitness

>  <sequence-variant>
V13I

>  <number>
0.053

$$$$
>  <sequence-variant>
F27H

>  <number>
0.028

$$$$
>  <sequence-variant>
Q25T

>  <number>
-0.102

$$$$
>  <sequence-variant>
G29S

>  <number>
-0.109

$$$$
>  <sequence-variant>
S48Y

>  <number>
-0.168

$$$$
>  <sequence-variant>
P19G

>  <number>
0.063

$$$$
>  <sequence-variant>
D10M

>  <number>
-0.054

$$$$
>  <sequence-variant>
V13A

>  <number>
-0.125

$$$$
>  <sequence-variant>
R28K

>  <number>
0.064

$$$$
>  <sequence-variant>
N60T

>  <number>
-0.019

$$$$
>  <sequence-variant>
D54M

>  <number>
0.006

$$$$
>  <sequence-variant>
E23I

>  <number>
-0.126

$$$$
>  <sequence-variant>
R58G

>  <number>
-0.156

$$$$
>  <sequence-variant>
R40G

>  <number>
0.107

$$$$
>  <sequence-variant>
L1Y

>  <number>
-0.582

$$$$
>  <sequence-variant>
I7S

>  <number>
-0.048

$$$$
>  <sequence-variant>
L47H

>  <number>
0.126

$$$$
>  <sequence-variant>
C44S

>  <number>
-0.032

$$$$
>  <sequence-variant>
D50E

>  <number>
-0.023

$$$$
>  <sequence-variant>
C80I

>  <number>
0.047

$$$$
